This section presents variants with their documented protein stability index values.
B1: C8orf76 (parent)
chain: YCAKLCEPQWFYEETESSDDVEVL

Variants of: B1
assay: protein stability index of a GFP-peptide fusion (GPS, HEK-293T) (PSI 1-6); higher = more stable;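 note: lentivirally expressed fusions sorted by FACS into six bins by GFP to DsRed ratio, PSI derived from sequencing read proportions per bin multiplied by bin number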
condition summary: c terminus: a fixed tail appended
Field format: numeric only.

Consider the reported protein stability index for these variants:
# sequence change, protein stability index
records = [
    ("L24E", 2.62),
    ("C6E", 3.63),
    ("E14H", 2.1),
    ("D19G", 2.09),
    ("E14S", 2.15),
    ("C2W", 2.82),
]

Task: What value of protein stability index has been recorded for this entry: Y1D
Result: 5.04

Just for reference, the supplement of paper PMC10567573 is where these values come from.
